Test system: field poppy
protocolNotes: Test D postemergence
Format: in vivo, Papaver rhoeas
conditionInfo: 62 g ai/ha, scale 0 to 100
Excerpt: […]
Values of Plant response rating: Field Poppy greater than or equal to 90 map to fulfilled; values below map to not fulfilled.

Here are 3 molecules together with their reported answers.
cpdSmiles | answerLabel
CCc1nc(-c2ccc(C(F)(F)F)cc2)nn1Cc1ccnc(C(F)(F)F)c1 | fulfilled
COc1nc(-c2ccc(Cl)cc2)nn1Cc1ccnc(C(F)(F)F)c1 | not fulfilled
FC(F)(F)COc1nc(-c2ccc(Cl)cc2)nn1Cc1ccnc(C(F)(F)F)c1 | fulfilled

Kindly determine if Plant response rating: Field Poppy recorded for `FC(F)(F)COc1nc(-c2ccccc2)nn1Cc1ccnc(C(F)(F)F)c1` is above or exactly 90.
not fulfilled

###

Below, each entry is listed with its recorded Plant response rating (0 to 100), Speedwell.
Test system: speedwell
protocolNotes: Test D preemergence
Assay type: in vivo, Veronica persica
conditionInfo: 16 g ai/ha, 0 is no effect, 100 is complete control
Write the value as a bare number.

Solved cases below.
cpdSmiles | endpointResult
CCOc1nc(-c2ccc(C(F)(F)F)cc2)nn1Cc1ccnc(C(F)(F)F)c1 | 100
CCOc1nc(-c2ccccc2)nn1Cc1ccnc(C(F)(F)F)c1 | 95
Fc1ccc(-c2nc(OCC(F)(F)F)n(Cc3ccnc(C(F)(F)F)c3)n2)cc1 | 100

Okay, next one:
Would you mind telling me what Plant response rating (0 to 100), Speedwell value was observed for `COc1nc(-c2ccc(Cl)cc2)nn1Cc1ccnc(C(F)(F)F)c1` ?
75

###

This section presents compounds with their documented Corn plant response rating (crop injury, 0 = no effect, 100 = complete kill) at 500 g/ha values.
Test system: corn
protocolNotes: Test A preemergence
Type: in vivo, Zea mays
conditionInfo: Zea mays, pre-emergence, 240 h, 500 g ai/ha, 0 to 100 scale (0 no effect, 100 complete control), approx. 10 d
All answers are understood in %, so give the number only.

The following compounds have reported results that may help.
compound | experimentalSystem | units | endpointResult
COc1nc(-c2ccc(F)cc2)nn1Cc1ccnc(C(F)(F)F)c1 | corn | % | 40
Cn1nc(-c2ccc(F)cc2)nc1Oc1cccc(C(F)(F)F)c1 | corn | % | 0
CCOc1nc(-c2ccc(F)cc2)nn1Cc1ccnc(C(F)(F)F)c1 | corn | % | 100

With those in mind, consider the next compound.
Give the measured Corn plant response rating (crop injury, 0 = no effect, 100 = complete kill) at 500 g/ha of Cn1nc(-c2ccc(F)cc2)nc1C(O)c1ccnc(C(F)(F)F)c1 (stereo not shown) .
0

###

Test system: rice
protocolNotes: Test B flooded paddy test
Format: in vivo, Oryza sativa
conditionInfo: Oryza sativa, 360 h, 125 g ai/ha, applied to paddy water at 2-leaf stage, visual rating after 13 to 15 d, scale 0 (no effect) to 100 (complete control), read-out: Plant response rating, Rice, Flood
Entries and their plant injury at 125 g/ha
Give the value in % but do not write % after it.

compound | experimentalSystem | endpointName | endpointResult
CCn1nc(-c2ccc(F)cc2)nc1C(O)c1ccnc(C(F)(F)F)c1 (stereo not drawn) | rice | plant injury at 125 g/ha | 0
CS(=O)(=O)c1nc(-c2ccc(F)cc2)nn1Cc1ccnc(C(F)(F)F)c1 | rice | plant injury at 125 g/ha | 0
CCn1nc(-c2ccc(F)cc2)nc1C(=O)c1ccnc(C(F)(F)F)c1 | rice | plant injury at 125 g/ha | 0
Cn1nc(-c2ccc(F)cc2)nc1C(O)c1ccnc(C(F)(F)F)c1 (stereo not drawn) | rice | plant injury at 125 g/ha | 0
COc1nc(-c2ccc(F)cc2)nn1Cc1ccnc(C(F)(F)F)c1 | rice | plant injury at 125 g/ha | 0

Query: plant injury at 125 g/ha; subject: `CCc1nc(-c2ccc(C(F)(F)F)cc2)nn1Cc1ccnc(C(F)(F)F)c1`
25

###

Tested on: wheat
protocolNotes: Test A postemergence
Assay type: in vivo, Triticum aestivum
conditionInfo: 500 g ai/ha, 0 to 100 scale (0 no effect, 100 complete control), approx. 10 d
endpointName: Plant response rating, Wheat
Answer field: number only, no words.

Study these solved cases before continuing.
compound | Plant response rating, Wheat
CCCn1nc(-c2ccc(F)cc2)nc1C(O)c1ccnc(C(F)(F)F)c1 (stereo not shown) [Compound 16] | 30
COc1nc(-c2ccc(Cl)cc2)nn1Cc1ccnc(C(F)(F)F)c1 [Compound 28] | 10
CCCn1nc(-c2ccc(F)cc2)nc1C(=O)c1ccnc(C(F)(F)F)c1 [Compound 20] | 30

Note: attention shifts to another entry.
Need Plant response rating, Wheat of CCCc1nc(-c2ccc(F)c(F)c2)nn1Cc1ccnc(C(F)(F)F)c1 [Compound 23] , thanks.
50

###

Readings of pest or weed control at 500 g/ha for the listed compounds
Test system: crabgrass, large
protocolNotes: Test A postemergence
Assay type: in vivo, Digitaria sanguinalis
conditionInfo: Digitaria sanguinalis, post-emergence, 240 h, 500 g ai/ha, 0 to 100 scale (0 no effect, 100 complete control), approx. 10 d, read-out: Plant response rating, Crabgrass, Large
Please state the figure in %; there is no need to write the unit.

compound | units | pest or weed control at 500 g/ha
CS(=O)(=O)c1nc(-c2ccc(F)cc2)nn1Cc1ccnc(C(F)(F)F)c1 | % | 0
Cn1nc(-c2ccc(F)cc2)nc1Oc1cccc(C(F)(F)F)c1 | % | 90
COc1nc(-c2ccc(F)cc2)nn1Cc1ccnc(C(F)(F)F)c1 | % | 100
Cn1nc(-c2ccc(F)cc2)nc1C(O)c1ccnc(C(F)(F)F)c1 (centres unmarked) | % | 30

Pending compound:
Value lookup for pest or weed control at 500 g/ha; key = `CCCc1nc(-c2ccc(F)cc2)nn1Cc1ccnc(C(F)(F)F)c1`
90

###

Reported Plant response rating (scale of 0 to 100 where 0 is no effect and 100 is complete control) values follow for various molecules
Tested on: ragweed
protocolNotes: Test C postemergence
Type: in vivo, Ambrosia elatior
conditionInfo: 31 g ai/ha
// return just the number, without any unit appended

cpdSmiles | experimentalSystem | endpointResult
CCOc1nc(-c2ccc(C(F)(F)F)cc2)nn1Cc1ccnc(C(F)(F)F)c1 | ragweed | 65
Fc1ccc(-c2nc(OCC(F)(F)F)n(Cc3ccnc(C(F)(F)F)c3)n2)cc1 | ragweed | 65
CCc1nc(-c2ccc(C(F)(F)F)cc2)nn1Cc1ccnc(C(F)(F)F)c1 | ragweed | 60

Field: next molecule
What value of measured Plant response rating (scale of 0 to 100 where 0 is no effect and 100 is complete control) is listed for `CCCc1nc(-c2ccc(F)cc2)nn1Cc1ccnc(C(F)(F)F)c1` ?
75

###

Listed next: entries and their corresponding Ragweed plant response rating (0 to 100).
System: ragweed
protocolNotes: Test C preemergence
Assay type: in vivo, Ambrosia elatior
conditionInfo: Preemergence, 62 g ai/ha, visual rating after 13 to 15 d
Lab note: jot down the number only; don't add units.

I am curious: what Ragweed plant response rating (0 to 100) value has been reported for CCOc1nc(-c2ccc(C(F)(F)F)cc2)nn1Cc1ccnc(C(F)(F)F)c1 [Compound 35] ?
75

What Ragweed plant response rating (0 to 100) value was documented for this compound, COc1nc(-c2ccc(F)cc2)nn1Cc1ccnc(C(F)(F)F)c1 [Compound 9] ?
60

State the recorded Ragweed plant response rating (0 to 100) for this entry: CCc1nc(-c2ccc(C(F)(F)F)cc2)nn1Cc1ccnc(C(F)(F)F)c1 [Compound 1]
50

I am curious: what Ragweed plant response rating (0 to 100) value has been reported for CCOc1nc(-c2ccc(F)cc2)nn1Cc1ccnc(C(F)(F)F)c1 [Compound 8] ?
85

###

System: oat, wild
protocolNotes: Test C postemergence
Assay type: in vivo, Avena fatua
conditionInfo: 125 g ai/ha
endpointName: Plant response rating (scale of 0 to 100 where 0 is no effect and 100 is complete control)

Answered examples (3):
cpdSmiles | experimentalSystem | endpointResult
COc1nc(-c2ccccc2)nn1Cc1ccnc(C(F)(F)F)c1 | oat, wild | 5
CCOc1nc(-c2ccc(Cl)cc2)nn1Cc1ccnc(C(F)(F)F)c1 | oat, wild | 45
CCCOc1nc(-c2ccccc2)nn1Cc1ccnc(C(F)(F)F)c1 | oat, wild | 20

Using the record for `CCOc1nc(-c2ccccc2)nn1Cc1ccnc(C(F)(F)F)c1` , report its Plant response rating (scale of 0 to 100 where 0 is no effect and 100 is complete control).
25

###

System: pigweed
protocolNotes: Test A postemergence
Type: in vivo, Amaranthus retroflexus
conditionInfo: 500 g ai/ha, 0 to 100 scale (0 no effect, 100 complete control), approx. 10 d
endpointName: Plant response rating, Pigweed
Provide a numeric answer; units are not to be included.

// known answers, use as guide
compound | endpointName | endpointResult
FC(F)(F)COc1nc(-c2ccccc2)nn1Cc1ccnc(C(F)(F)F)c1 [Compound 24] | Plant response rating, Pigweed | 100
CCn1nc(-c2ccc(F)cc2)nc1Cc1ccnc(C(F)(F)F)c1 [Compound 18] | Plant response rating, Pigweed | 100
CCOc1nc(-c2ccccc2)nn1Cc1ccnc(C(F)(F)F)c1 [Compound 27] | Plant response rating, Pigweed | 100
CCCc1nc(-c2ccc(F)c(F)c2)nn1Cc1ccnc(C(F)(F)F)c1 [Compound 23] | Plant response rating, Pigweed | 100
CCCOc1nc(-c2ccccc2)nn1Cc1ccnc(C(F)(F)F)c1 [Compound 33] | Plant response rating, Pigweed | 100

Would you kindly share the measured Plant response rating, Pigweed for COc1nc(-c2ccccc2)nn1Cc1ccnc(C(F)(F)F)c1 [Compound 32] ?
100

Fill in the blank: the reported Plant response rating, Pigweed of Fc1ccc(-c2nc(OCC(F)(F)F)n(Cc3ccnc(C(F)(F)F)c3)n2)cc1 [Compound 30] is ____.
100
